Target: AMSH (Associated Molecule with the SH3 domain of STAM) (Homo sapiens, UniProt O95630)
Sequence (O95630 219-424): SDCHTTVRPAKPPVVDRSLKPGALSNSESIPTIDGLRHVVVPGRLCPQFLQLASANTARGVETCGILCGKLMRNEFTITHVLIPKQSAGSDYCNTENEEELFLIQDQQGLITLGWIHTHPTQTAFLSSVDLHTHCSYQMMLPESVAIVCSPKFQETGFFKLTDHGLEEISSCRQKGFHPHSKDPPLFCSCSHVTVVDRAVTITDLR
ATTRIBUTE MEASURED: IC50 (µM)
Answers are plain numbers, in µM.

Tell me the measured IC50 of CCN1C(=O)C=CC1=O [NEM, N-ethylmaleimide] , please.
16.2
